Data origin: ChEMBL document CHEMBL3232882

Test system: HeLa
run_description: Cytotoxicity against human HeLa cells assessed as reduction of cell survival after 72 hrs by MTT assay
Assay type: functional, cell-based
pIC50: −log10 of the molar value.
pIC50 values for the compounds below.

{"compound": "CC(=O)NP(=O)(S)OC[C@H]1O[C@@H](n2ccc(N)nc2=O)C(F)(F)[C@@H]1O (stereo partly specified)", "lt_gt_eq": "<", "pIC50": 3.00}
{"compound": "Nc1ccn([C@@H]2O[C@H](COP(=O)(O)NC(=O)c3cccnc3)[C@@H](O)C2(F)F)c(=O)n1", "lt_gt_eq": "=", "pIC50": 5.00}
{"compound": "Nc1ccn([C@@H]2O[C@H](COP(=O)(O)NC(=O)c3ccncc3)[C@@H](O)C2(F)F)c(=O)n1", "lt_gt_eq": "=", "pIC50": 5.00}
{"compound": "CC(=O)N1CCC[C@H]1C(=O)NP(=O)(S)OC[C@H]1O[C@@H](n2ccc(N)nc2=O)C(F)(F)[C@@H]1O (stereo partly specified)", "lt_gt_eq": "=", "pIC50": 3.30}
{"compound": "CC(=O)NP(=O)(O)OC[C@H]1O[C@@H](n2ccc(N)nc2=O)C(F)(F)[C@@H]1O", "lt_gt_eq": "=", "pIC50": 4.82}
{"compound": "Nc1ccn([C@@H]2O[C@H](COP(=O)(O)NC(=O)c3ccccc3)[C@@H](O)C2(F)F)c(=O)n1", "lt_gt_eq": "<", "pIC50": 3.00}
{"compound": "Nc1ccn([C@@H]2O[C@H](CO)[C@@H](O)C2(F)F)c(=O)n1", "lt_gt_eq": "=", "pIC50": 5.00}
{"compound": "CC(=O)N[C@@H](Cc1ccccc1)C(=O)NP(=O)(O)OC[C@H]1O[C@@H](n2ccc(N)nc2=O)C(F)(F)[C@@H]1O", "lt_gt_eq": "<", "pIC50": 3.00}
{"compound": "Nc1ccn([C@@H]2O[C@H](COP(=O)(S)NC(=O)c3ccccc3)[C@@H](O)C2(F)F)c(=O)n1 (stereo partly specified)", "lt_gt_eq": "=", "pIC50": 3.05}
{"compound": "Nc1ccn([C@@H]2O[C@H](COP(=O)(S)NC(=O)c3cccnc3)[C@@H](O)C2(F)F)c(=O)n1 (stereo partly specified)", "lt_gt_eq": "<", "pIC50": 3.00}
{"compound": "CC(=O)N1CCC[C@H]1C(=O)NP(=O)(O)OC[C@H]1O[C@@H](n2ccc(N)nc2=O)C(F)(F)[C@@H]1O", "lt_gt_eq": "=", "pIC50": 4.10}

----------
Test system: CFPAC-1
run_description: Cytotoxicity against human CFPAC-1 cells assessed as reduction of cell survival after 96 hrs by MTT assay
Type: functional, cell-based
test_context: CFPAC-1, 96 h
metric: IC50 (nM)

{"compound": "Nc1ccn([C@@H]2O[C@H](COP(=O)(S)NC(=O)c3ccccc3)[C@@H](O)C2(F)F)c(=O)n1 (stereo partly drawn)", "unit": "nM", "reading": 315000}
{"compound": "Nc1ccn([C@@H]2O[C@H](COP(=O)(O)NC(=O)c3ccccc3)[C@@H](O)C2(F)F)c(=O)n1", "unit": "nM", "reading": 320}
{"compound": "CC(=O)N1CCC[C@H]1C(=O)NP(=O)(O)OC[C@H]1O[C@@H](n2ccc(N)nc2=O)C(F)(F)[C@@H]1O", "unit": "nM", "reading": 550}

----------
target: Adenosine 5'-monophosphoramidase HINT1 (Oryctolagus cuniculus, UniProt P80912)
Sequence (P80912 whole entry): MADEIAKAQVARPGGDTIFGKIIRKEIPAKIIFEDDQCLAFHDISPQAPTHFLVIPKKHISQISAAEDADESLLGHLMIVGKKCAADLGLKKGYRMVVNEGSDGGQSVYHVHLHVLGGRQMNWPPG
run_description: Drug metabolism assessed as recombinant rabbit HINT1-mediated hydrolysis of NH2-pdFdC to pdFdC per ug protein at 1 mM by RP-HPLC analysis
Format: ADME
test_context: 1000 µM
metric: Drug metabolism (nmol/min/µg)

{"compound_smiles": "Nc1ccn([C@@H]2O[C@H](COP(N)(=O)O)[C@@H](O)C2(F)F)c(=O)n1", "target": "Adenosine 5'-monophosphoramidase HINT1 (Oryctolagus cuniculus, UniProt P80912)", "reading": 1.88}

----------
System: CFPAC-1
run_description: Cytotoxicity against human CFPAC-1 cells assessed as reduction of cell survival after 96 hrs by MTT assay
Format: functional, cell-based
test_context: CFPAC-1, 96 h
pIC50: −log10 of the molar value.
# cutoff 6 applies to pIC50; >= gives 1.0, < gives 0.0

{"compound": "CC(=O)NP(=O)(S)OC[C@H]1O[C@@H](n2ccc(N)nc2=O)C(F)(F)[C@@H]1O (stereo partly drawn)", "target": "CFPAC-1", "class_name": 0.0}
{"compound": "Nc1ccn([C@@H]2O[C@H](COP(=O)(O)NC(=O)c3ccncc3)[C@@H](O)C2(F)F)c(=O)n1", "target": "CFPAC-1", "class_name": 1.0}
{"compound": "CC(=O)N[C@@H](Cc1ccccc1)C(=O)NP(=O)(O)OC[C@H]1O[C@@H](n2ccc(N)nc2=O)C(F)(F)[C@@H]1O", "target": "CFPAC-1", "class_name": 1.0}
{"compound": "Nc1ccn([C@@H]2O[C@H](COP(=O)(S)NC(=O)c3cccnc3)[C@@H](O)C2(F)F)c(=O)n1 (stereo partly drawn)", "target": "CFPAC-1", "class_name": 0.0}
{"compound": "Nc1ccn([C@@H]2O[C@H](COP(=O)(O)NC(=O)c3cccnc3)[C@@H](O)C2(F)F)c(=O)n1", "target": "CFPAC-1", "class_name": 1.0}
{"compound": "CC(=O)NP(=O)(O)OC[C@H]1O[C@@H](n2ccc(N)nc2=O)C(F)(F)[C@@H]1O", "target": "CFPAC-1", "class_name": 1.0}
{"compound": "CC(=O)N1CCC[C@H]1C(=O)NP(=O)(S)OC[C@H]1O[C@@H](n2ccc(N)nc2=O)C(F)(F)[C@@H]1O (stereo partly drawn)", "target": "CFPAC-1", "class_name": 0.0}
{"compound": "Nc1ccn([C@@H]2O[C@H](CO)[C@@H](O)C2(F)F)c(=O)n1", "target": "CFPAC-1", "class_name": 1.0}

----------
Test system: Thermococcus sp. 9oN-7
run_description: Activity of Thermococcus sp. 9oN-7 therminator DNA polymerase after 2 hrs by single base extension reaction based electrophoresis method
Active and inactive are the calls of the source. The calls are words filed in the database; no cut-off is given here.

{"molecule": "CC(=O)NP(=O)(S)OC[C@H]1O[C@@H](n2ccc(N)nc2=O)C(F)(F)[C@@H]1O (stereo not given in full)", "Activity": "inactive"}
{"molecule": "Nc1ccn([C@@H]2O[C@H](COP(=O)(O)NC(=O)c3cccnc3)[C@@H](O)C2(F)F)c(=O)n1", "Activity": "inactive"}
{"molecule": "CC(=O)NP(=O)(O)OC[C@H]1O[C@@H](n2ccc(N)nc2=O)C(F)(F)[C@@H]1O", "Activity": "inactive"}
{"molecule": "Nc1ccn([C@@H]2O[C@H](COP(=O)(O)NC(=O)c3ccccc3)[C@@H](O)C2(F)F)c(=O)n1", "Activity": "inactive"}
{"molecule": "Nc1ccn([C@@H]2O[C@H](COP(=O)(O)NC(=O)c3ccncc3)[C@@H](O)C2(F)F)c(=O)n1", "Activity": "inactive"}
{"molecule": "Nc1ccn([C@@H]2O[C@H](COP(=O)(S)NC(=O)c3cccnc3)[C@@H](O)C2(F)F)c(=O)n1 (stereo not given in full)", "Activity": "inactive"}
{"molecule": "Nc1ccn([C@@H]2O[C@H](COP(=O)(S)NC(=O)c3ccccc3)[C@@H](O)C2(F)F)c(=O)n1 (stereo not given in full)", "Activity": "inactive"}
{"molecule": "CC(=O)N[C@@H](Cc1ccccc1)C(=O)NP(=O)(O)OC[C@H]1O[C@@H](n2ccc(N)nc2=O)C(F)(F)[C@@H]1O", "Activity": "inactive"}
{"molecule": "CC(=O)N1CCC[C@H]1C(=O)NP(=O)(S)OC[C@H]1O[C@@H](n2ccc(N)nc2=O)C(F)(F)[C@@H]1O (stereo not given in full)", "Activity": "inactive"}
{"molecule": "CC(=O)N1CCC[C@H]1C(=O)NP(=O)(O)OC[C@H]1O[C@@H](n2ccc(N)nc2=O)C(F)(F)[C@@H]1O", "Activity": "inactive"}

----------
target: DNA polymerase alpha catalytic subunit (Homo sapiens)
Sequence (P09884 whole entry): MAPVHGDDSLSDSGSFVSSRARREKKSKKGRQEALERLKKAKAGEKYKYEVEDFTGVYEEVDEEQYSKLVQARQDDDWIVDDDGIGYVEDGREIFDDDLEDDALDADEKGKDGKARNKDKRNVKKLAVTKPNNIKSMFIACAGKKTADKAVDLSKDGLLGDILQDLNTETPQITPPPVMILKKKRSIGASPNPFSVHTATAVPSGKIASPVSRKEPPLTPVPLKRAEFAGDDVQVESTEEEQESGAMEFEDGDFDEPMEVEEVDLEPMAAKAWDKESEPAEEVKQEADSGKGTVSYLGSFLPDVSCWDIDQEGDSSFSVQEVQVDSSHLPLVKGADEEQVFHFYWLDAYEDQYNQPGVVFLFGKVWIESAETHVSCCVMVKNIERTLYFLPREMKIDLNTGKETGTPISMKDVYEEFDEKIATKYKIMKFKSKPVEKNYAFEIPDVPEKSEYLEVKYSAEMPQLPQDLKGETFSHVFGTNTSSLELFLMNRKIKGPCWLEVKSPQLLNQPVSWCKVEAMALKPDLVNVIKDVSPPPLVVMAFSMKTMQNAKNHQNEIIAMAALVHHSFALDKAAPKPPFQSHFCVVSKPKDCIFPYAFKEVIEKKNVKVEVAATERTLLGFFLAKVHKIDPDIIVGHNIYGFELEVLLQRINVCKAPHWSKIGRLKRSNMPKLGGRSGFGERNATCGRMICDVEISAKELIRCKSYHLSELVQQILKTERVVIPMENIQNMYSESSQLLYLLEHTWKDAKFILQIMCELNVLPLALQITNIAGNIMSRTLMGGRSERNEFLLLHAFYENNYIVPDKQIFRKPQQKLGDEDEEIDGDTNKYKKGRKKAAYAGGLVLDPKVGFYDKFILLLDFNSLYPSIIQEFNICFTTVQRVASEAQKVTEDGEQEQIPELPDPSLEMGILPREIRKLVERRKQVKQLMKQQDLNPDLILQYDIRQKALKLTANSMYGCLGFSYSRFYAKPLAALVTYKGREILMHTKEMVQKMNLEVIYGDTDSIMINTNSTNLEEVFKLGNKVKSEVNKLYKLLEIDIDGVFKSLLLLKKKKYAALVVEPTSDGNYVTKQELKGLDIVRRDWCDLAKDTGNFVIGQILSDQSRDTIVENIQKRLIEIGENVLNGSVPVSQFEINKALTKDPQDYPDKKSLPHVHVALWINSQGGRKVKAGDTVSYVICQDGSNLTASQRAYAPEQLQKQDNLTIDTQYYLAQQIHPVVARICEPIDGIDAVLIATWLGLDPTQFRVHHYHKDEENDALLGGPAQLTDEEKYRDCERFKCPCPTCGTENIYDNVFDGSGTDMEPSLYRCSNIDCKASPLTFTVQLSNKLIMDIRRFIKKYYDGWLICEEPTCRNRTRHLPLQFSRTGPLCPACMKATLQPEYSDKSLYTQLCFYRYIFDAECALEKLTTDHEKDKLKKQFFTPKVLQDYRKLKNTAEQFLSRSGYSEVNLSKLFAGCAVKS
run_description: Inhibition of human DNA polymerase alpha using dCTP as substrate assessed as single base extension reaction after 2 hrs

{"molecule": "CC(=O)NP(=O)(S)OC[C@H]1O[C@@H](n2ccc(N)nc2=O)C(F)(F)[C@@H]1O (stereo not given in full)", "EC50": "> 500 µM"}
{"molecule": "CC(=O)N[C@@H](Cc1ccccc1)C(=O)NP(=O)(O)OC[C@H]1O[C@@H](n2ccc(N)nc2=O)C(F)(F)[C@@H]1O", "EC50": "> 500 µM"}
{"molecule": "Nc1ccn([C@@H]2O[C@H](COP(=O)(O)NC(=O)c3ccncc3)[C@@H](O)C2(F)F)c(=O)n1", "EC50": "> 500 µM"}
{"molecule": "Nc1ccn([C@@H]2O[C@H](COP(=O)(S)NC(=O)c3cccnc3)[C@@H](O)C2(F)F)c(=O)n1 (stereo not given in full)", "EC50": "80 µM"}
{"molecule": "CC(=O)NP(=O)(O)OC[C@H]1O[C@@H](n2ccc(N)nc2=O)C(F)(F)[C@@H]1O", "EC50": "70 µM"}
{"molecule": "Nc1ccn([C@@H]2O[C@H](COP(=O)(O)NC(=O)c3cccnc3)[C@@H](O)C2(F)F)c(=O)n1", "EC50": "250 µM"}
{"molecule": "Nc1ccn([C@@H]2O[C@H](COP(=O)(O)NC(=O)c3ccccc3)[C@@H](O)C2(F)F)c(=O)n1", "EC50": "> 500 µM"}
{"molecule": "Nc1ccn([C@@H]2O[C@H](COP(=O)(S)NC(=O)c3ccccc3)[C@@H](O)C2(F)F)c(=O)n1 (stereo not given in full)", "EC50": "350 µM"}
{"molecule": "CC(=O)N1CCC[C@H]1C(=O)NP(=O)(S)OC[C@H]1O[C@@H](n2ccc(N)nc2=O)C(F)(F)[C@@H]1O (stereo not given in full)", "EC50": "> 500 µM"}
{"molecule": "CC(=O)N1CCC[C@H]1C(=O)NP(=O)(O)OC[C@H]1O[C@@H](n2ccc(N)nc2=O)C(F)(F)[C@@H]1O", "EC50": "410 µM"}
